Tested on: MPNST multicellular tumor spheroids, viability % test/control
method-notes: Anticancer human tumor MPNST cell line growth inhibition;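 note: spheroids exposed to agents for seven days after three days of growth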
condition-label: curve of first compound; second compound 3.16 µM
Below, each of the molecules is paired with its reported IC50 value.

molecule: Cc1cc(C)c(CNC(=O)c2cc(-c3ccc(CN4CCOCC4)cc3)cc3c2cnn3C2CCCC2)c(=O)[nH]1 + Cn1nnc2c(C(N)=O)ncn2c1=O
unit-of-measure: µM
qualifier-symbol: >
IC50: 10

molecule: COc1cc(C)[nH]c(=O)c1CN1CCc2c(Cl)cc(C(OC)C3COC3)c(Cl)c2C1=O (stereo not given) + Cn1nnc2c(C(N)=O)ncn2c1=O
unit-of-measure: µM
qualifier-symbol: >
IC50: 10

molecule: Cn1ncnc1[C@H]1c2n[nH]c(=O)c3cc(F)cc(c23)N[C@@H]1c1ccc(F)cc1 + Cn1nnc2c(C(N)=O)ncn2c1=O
unit-of-measure: µM
qualifier-symbol: >
IC50: 3

molecule: COc1ccc([C@@H](O)c2cc(-c3ncnc4cc(N5CCOCC5)ccc34)c(F)cc2Cl)nn1 + Cn1nnc2c(C(N)=O)ncn2c1=O
unit-of-measure: µM
qualifier-symbol: =
IC50: 1.51

molecule: CC(C)n1c(=O)n(C)c2cnc3cc(F)c(-c4ccc(OCCCN5CCCCC5)nc4)cc3c21 + Cn1nnc2c(C(N)=O)ncn2c1=O
unit-of-measure: µM
qualifier-symbol: >
IC50: 10

molecule: CNCc1ccc(-c2cc(-c3nc(-c4ccc(S(=O)(=O)C(C)C)cc4)cnc3N)on2)cc1 + Cn1nnc2c(C(N)=O)ncn2c1=O
unit-of-measure: µM
qualifier-symbol: >
IC50: 3

molecule: [2H]c1nc(C)nc([2H])c1-c1cc(NC[C@@H](C)c2cccc3c(C(=O)NC)ccnc23)ncn1 + Cn1nnc2c(C(N)=O)ncn2c1=O
unit-of-measure: µM
qualifier-symbol: >
IC50: 10

molecule: Cc1sc2c(c1C)C(c1ccc(Cl)cc1)=NC(CC(=O)Nc1ccc(O)cc1)c1nnc(C)n1-2 (stereo not given) + Cn1nnc2c(C(N)=O)ncn2c1=O
unit-of-measure: µM
qualifier-symbol: =
IC50: 0.813

molecule: CC1COCCN1c1cc(-c2ccnn2C)c2ccnc(-c3ccn[nH]3)c2n1 (stereo not given) + Cn1nnc2c(C(N)=O)ncn2c1=O
unit-of-measure: µM
qualifier-symbol: =
IC50: 0.238

molecule: O=C(c1cc(Cc2n[nH]c(=O)c3ccccc23)ccc1F)N1CCN(C(=O)C2CC2)CC1 + Cn1nnc2c(C(N)=O)ncn2c1=O
unit-of-measure: µM
qualifier-symbol: =
IC50: 22.9
